target: human GPR17 short isoform (Homo sapiens); test: hGPR17 cAMP assay (GPR17 cAMP Assay Protocol, antagonist mode); details: CHO-K1 cells stably expressing untagged human GPR17 short isoform; EC80 of agonist MDL29,951; forskolin 15 μM; 30 min, room temperature; TR-FRET cAMP readout
pIC50: −log10 of the molar value.
endpoint name: pIC50

Field: example entries. Status: answers known.
COc1nc(OCC(F)F)c(F)cc1NS(=O)(=O)c1cccc2c1CCC(C)O2 (stereo not shown)	7.51
N#CCc1cc(F)c(NS(=O)(=O)c2ccnc3cc(Cl)ccc23)cc1F	6.01

a: COc1nc(OCC(F)F)c(F)cc1NS(=O)(=O)c1cccc2cc(Cl)ccc12
b: COc1nc(OCC(F)F)c(F)cc1NS(=O)(=O)c1cncc2c(C#N)c(Cl)ccc12
Please indicate which entry, a or b , has the lower recorded pIC50 value. Response format: the label of the selected entry. b
(b: 6.60, a: 7.32)

---

biological target: human GPR17 short isoform (Homo sapiens, UniProt Q13304); experiment: hGPR17 cAMP assay (GPR17 cAMP Assay Protocol, antagonist mode); conditions: CHO-K1 cells stably expressing untagged human GPR17 short isoform; EC80 of agonist MDL29,951; forskolin 15 μM; 30 min, room temperature; TR-FRET cAMP readout
Sequence (Q13304 29-367): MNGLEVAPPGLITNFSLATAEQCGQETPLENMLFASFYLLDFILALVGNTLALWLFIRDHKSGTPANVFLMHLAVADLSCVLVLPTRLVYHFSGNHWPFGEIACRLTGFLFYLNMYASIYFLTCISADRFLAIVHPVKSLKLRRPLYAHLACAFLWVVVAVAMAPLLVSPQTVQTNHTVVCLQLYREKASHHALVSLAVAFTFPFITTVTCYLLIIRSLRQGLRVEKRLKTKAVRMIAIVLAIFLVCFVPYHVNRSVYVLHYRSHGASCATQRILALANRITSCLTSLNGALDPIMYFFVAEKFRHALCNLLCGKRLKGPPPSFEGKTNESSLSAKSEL
pIC50: −log10 of the molar value.
endpoint name: pIC50

Field: example entries. Status: answers known.
COc1nc(OCC(F)F)c(F)cc1NS(=O)(=O)c1cccc2ccccc12	7.07
COc1nc(C2COC2)c(F)cc1NS(=O)(=O)c1cccc2nc(Cl)ccc12	6.37
COc1nc(OCC(F)F)c(F)cc1NS(=O)(=O)c1cccc2nc(C(F)F)ccc12	6.67
CN(C)c1ccc2c(S(=O)(=O)Nc3cc(F)c(CC#N)cc3F)cccc2n1	6.62

A: N#CCc1cc(F)c(NS(=O)(=O)c2c[nH]c(=O)c3c(Cl)c(Cl)ccc23)cc1F
B: COc1nc(OCC(F)F)c(F)cc1NS(=O)(=O)c1c[nH]c(=O)c2c(Cl)c(Cl)ccc12
C: COc1nc(OCC(F)F)c(F)cc1NS(=O)(=O)c1cccc2c(N(C)C)cccc12
D: CNc1ncc(S(=O)(=O)Nc2cc(F)c(OCC(F)F)nc2OC)c2ccc(Cl)cc12
With regard to pIC50, arrange the entries in ascending order, please. State the ranking by listing the labels in the requested order. A, D, C, B

---

target: human GPR17 short isoform (Homo sapiens, UniProt Q13304); experiment: hGPR17 cAMP assay (GPR17 cAMP Assay Protocol, antagonist mode); details: CHO-K1 cells stably expressing untagged human GPR17 short isoform; EC80 of agonist MDL29,951; forskolin 15 μM; 30 min, room temperature; TR-FRET cAMP readout
pIC50: −log10 of the molar value.
endpoint name: pIC50

Field: example entries. Status: answers known.
N#CCc1cc(F)c(NS(=O)(=O)c2cnc(O)c3c(Cl)cccc23)cc1F	6.49
N#CCc1cc(F)c(NS(=O)(=O)c2c[nH]c(=O)c3ccccc23)cc1F	6.23
COc1nc(OCC(F)F)c(F)cc1NS(=O)(=O)c1cn(C)c(=O)c2cc(Cl)ccc12	6.43
COc1nc(OCC(F)F)c(F)cc1NS(=O)(=O)c1cccc2nc(Cl)ccc12	7.55
CNc1cc(S(=O)(=O)Nc2cc(F)c(OCC(F)F)nc2OC)c2ccc(Cl)cc2n1	7.14
O=c1[nH]cc(S(=O)(=O)Nc2cc(F)c(OC(F)F)nc2OC(F)F)c2ccc(Cl)cc12	7.49

I: COc1nc(OC(F)F)c(F)cc1NS(=O)(=O)c1ccnc2cc(Cl)ccc12
II: N#CCc1cc(F)c(NS(=O)(=O)c2cncc3cc(Cl)ccc23)cc1F
Please indicate which entry, I or II , has the lower recorded pIC50 value. Response format: the label of the selected entry. II
